Value source: ChEMBL document CHEMBL3112463

tested on: SW1573; test: Antiproliferative activity against human SW1573 cells assessed as growth inhibition after 48 hrs by SRB assay; assay type: functional; details: SW1573, 48 h

| Smiles Data | Measured On | GI50 [µM] |
| --- | --- | --- |
| COC(=O)[C@@]1(C)CCC=C2[C@@H]1CC[C@@H](C)[C@]2(C)Cc1c(C)[nH]c2c(C)cccc12 | SW1573 | 15 |
| COC(=O)[C@@]1(C)CC[C@@H]2C3=C1CC[C@@H](C)[C@]3(C)C[C@@H]1c3cccc(C)c3N[C@H]21 | SW1573 | 31 |
| COC(=O)[C@@]1(C)CCC=C2[C@@H]1CC[C@@H](C)[C@]2(C)Cc1c[nH]c2ccc(C)cc12 | SW1573 | 15 |
| COC(=O)[C@@]1(C)CCC=C2[C@@H]1CC[C@@H](C)[C@]2(C)Cc1c(/C=C/[N+](=O)[O-])[nH]c2ccccc12 | SW1573 | 13 |
| COC(=O)[C@@]1(C)CCC=C2[C@@H]1CC[C@@H](C)[C@]2(C)Cc1c(C)[nH]c2ccc(C(F)(F)F)cc12 | SW1573 | 15 |
| COC(=O)[C@@]1(C)CC[C@@H]2C3=C1CC[C@@H](C)[C@]3(C)Cc1c2[nH]c2c(Cl)cccc12 | SW1573 | 17 |
| COC(=O)[C@@]1(C)CCC=C2[C@@H]1CC[C@@H](C)[C@]2(C)Cc1c[nH]c2ccc(F)cc12 | SW1573 | 7.3 |
| COC(=O)[C@@]1(C)CCC=C2[C@@H]1CC[C@@H](C)[C@]2(C)Cc1c[nH]c2c(C)cccc12 | SW1573 | 7.8 |
| COC(=O)[C@@]1(C)CC[C@@H]2C3=C1CC[C@@H](C)[C@]3(C)C[C@@H]1c3cc(Cl)ccc3N[C@H]21 | SW1573 | 38 |
| COC(=O)[C@@]1(C)CCC=C2[C@@H]1CC[C@@H](C)[C@]2(C)Cc1c(C)[nH]c2ccc(Cl)cc12 | SW1573 | 14 |

----------
test system: SW1573; assay: Antiproliferative activity against human SW1573 cells assessed as growth inhibition after 48 hrs by SRB assay; assay type: functional; conditions: SW1573, 48 h
Measured GI50 values are reported for all entries that follow.

| Smiles Data | Measured On | GI50, µM |
| --- | --- | --- |
| COC(=O)[C@@]1(C)CC[C@@H]2C3=C1CC[C@@H](C)[C@]3(C)Cc1c2[nH]c2ccc(OC)cc12 | SW1573 | 5.9 |
| COC(=O)[C@@]1(C)CC[C@@H]2C3=C1CC[C@@H](C)[C@]3(C)C[C@@H]1c3ccccc3N[C@H]21 | SW1573 | 30 |
| COC(=O)[C@@]1(C)CCC=C2[C@@H]1CC[C@@H](C)[C@]2(C)Cc1c[nH]c2ccc(OC)cc12 | SW1573 | 1.3 |
| COC(=O)[C@@]1(C)CC[C@@H]2C3=C1CC[C@@H](C)[C@]3(C)Cc1c2[nH]c2c(Br)cccc12 | SW1573 | 26 |
| COC(=O)[C@@]1(C)CC[C@@H]2C3=C1CC[C@@H](C)[C@]3(C)Cc1c2[nH]c2ccccc12 | SW1573 | 8.3 |
| COC(=O)[C@@]1(C)CC[C@@H]2C3=C1CC[C@@H](C)[C@]3(C)C[C@@H]1c3cc(C)ccc3N[C@H]21 | SW1573 | 23 |
| COC(=O)[C@@]1(C)CC[C@@H]2C3=C1CC[C@@H](C)[C@]3(C)C[C@@H]1c3cc(Br)ccc3N[C@H]21 | SW1573 | 45 |

----------
assay: Antiproliferative activity against human HBL100 cells assessed as growth inhibition after 48 hrs by SRB assay; format: functional; details: HBL-100, 48 h

| Smiles Data | GI50 / µM |
| --- | --- |
| COC(=O)[C@@]1(C)CC[C@@H]2C3=C1CC[C@@H](C)[C@]3(C)C[C@@H]1c3cc(OC)ccc3N[C@H]21 | 15 |
| COC(=O)[C@@]1(C)CCC=C2[C@@H]1CC[C@@H](C)[C@]2(C)Cc1c[nH]c2c(Cl)cccc12 | 19 |
| COC(=O)[C@@]1(C)CCC=C2[C@@H]1CC[C@@H](C)[C@]2(C)Cc1c[nH]c2ccccc12 | 4.5 |
| COC(=O)[C@@]1(C)CC[C@@H]2C3=C1CC[C@@H](C)[C@]3(C)Cc1c2[nH]c2ccc(OC)cc12 | 5 |
| COC(=O)[C@@]1(C)CCC=C2[C@@H]1CC[C@@H](C)[C@]2(C)Cc1c[nH]c2ccc(Cl)cc12 | 17 |
| COC(=O)[C@@]1(C)CC[C@@H]2C3=C1CC[C@@H](C)[C@]3(C)Cc1c2[nH]c2c(Br)cccc12 | 26 |
| COC(=O)[C@@]1(C)CC[C@@H]2C3=C1CC[C@@H](C)[C@]3(C)Cc1c2[nH]c2ccccc12 | 3.5 |
| COC(=O)[C@@]1(C)CCC=C2[C@@H]1CC[C@@H](C)[C@]2(C)Cc1c(C)[nH]c2ccc(Cl)cc12 | 15 |

----------
test system: SW1573; assay: Antiproliferative activity against human SW1573 cells assessed as growth inhibition after 48 hrs by SRB assay; format: functional; settings: SW1573, 48 h
Measured GI50 values are reported for all entries that follow.

| Smiles Data | Display Unit | Reading Qualifier | GI50 |
| --- | --- | --- | --- |
| COC(=O)[C@@]1(C)CC[C@@H]2C3=C1CC[C@@H](C)[C@]3(C)Cc1c2[nH]c2c(C)cccc12 | µM | = | 16 |
| COC(=O)[C@@]1(C)CCC=C2[C@@H]1CC[C@@H](C)[C@]2(C)Cc1c(C)n(C(c2ccccc2)c2ccccc2)c2ccc(Cl)cc12 | µM | > | 100 |
| COC(=O)[C@@]1(C)CCC=C2[C@@H]1CC[C@@H](C)[C@]2(C)Cc1c[nH]c2ccc(Cl)cc12 | µM | = | 11 |
| COC(=O)[C@@]1(C)CC[C@@H]2C3=C1CC[C@@H](C)[C@]3(C)C[C@@H]1c3cccc(Br)c3N[C@H]21 | µM | = | 44 |
| COC(=O)[C@@]1(C)CCC=C2[C@@H]1CC[C@@H](C)[C@]2(C)Cc1c(C)[nH]c2ccc(OC)cc12 | µM | = | 15 |
| COC(=O)[C@@]1(C)CCC=C2[C@@H]1CC[C@@H](C)[C@]2(C)Cc1c(C)[nH]c2ccc(Br)cc12 | µM | = | 14 |
| Cc1c(C[C@]2(C)C3=CCC[C@](C)(C(=O)O)[C@H]3CC[C@H]2C)c2cc(Cl)ccc2n1C(c1ccccc1)c1ccccc1 | µM | = | 13 |
| COC(=O)[C@@]1(C)CC[C@@H]2C3=C1CC[C@@H](C)[C@]3(C)Cc1c2[nH]c2ccc(C)cc12 | µM | = | 15 |
| COC(=O)[C@@]1(C)CC[C@@H]2C3=C1CC[C@@H](C)[C@]3(C)C[C@@H]1c3cccc(Cl)c3N[C@H]21 | µM | = | 49 |
| COC(=O)[C@@]1(C)CC[C@@H]2C3=C1CC[C@@H](C)[C@]3(C)C[C@@H]1c3cc(F)ccc3N[C@H]21 | µM | = | 27 |
| COC(=O)[C@@]1(C)CCC=C2[C@@H]1CC[C@@H](C)[C@]2(C)Cc1c(C)[nH]c2ccc(F)cc12 | µM | = | 12 |
| COC(=O)[C@@]1(C)CC[C@@H]2C3=C1CC[C@@H](C)[C@]3(C)C[C@@H]1c3cc(OC)ccc3N[C@H]21 | µM | = | 25 |
| COC(=O)[C@@]1(C)CC[C@@H]2C3=C1CC[C@@H](C)[C@]3(C)Cc1c2[nH]c2ccc(Br)cc12 | µM | = | 12 |
| COC(=O)[C@@]1(C)CCC=C2[C@@H]1CC[C@@H](C)[C@]2(C)Cc1c(C)[nH]c2ccccc12 | µM | = | 14 |
| COC(=O)[C@@]1(C)CCC=C2[C@@H]1CC[C@@H](C)[C@]2(C)Cc1c[nH]c2c(Br)cccc12 | µM | = | 14 |

----------
tested on: SW1573; experiment: Antiproliferative activity against human SW1573 cells assessed as growth inhibition after 48 hrs by SRB assay; format: functional; details: SW1573, 48 h
Measured GI50 values are reported for all entries that follow.
Quantity: GI50

| Smiles Data | Measured On | Measured Value |
| --- | --- | --- |
| COC(=O)[C@@]1(C)CCC=C2[C@@H]1CC[C@@H](C)[C@]2(C)Cc1c(C)[nH]c2c(Cl)cccc12 | SW1573 | 19 µM |
| COC(=O)[C@@]1(C)CCC=C2[C@@H]1CC[C@@H](C)[C@]2(C)Cc1c(C=O)[nH]c2ccccc12 | SW1573 | 7.9 µM |
| COC(=O)[C@@]1(C)CCC=C2[C@@H]1CC[C@@H](C)[C@]2(C)Cc1c(C)[nH]c2ccc(C)cc12 | SW1573 | 18 µM |
| COC(=O)[C@@]1(C)CCC=C2[C@@H]1CC[C@@H](C)[C@]2(C)Cc1c(C)[nH]c2c(Br)cccc12 | SW1573 | 25 µM |
| COC(=O)[C@@]1(C)CCC=C2[C@@H]1CC[C@@H](C)[C@]2(C)Cc1c[nH]c2ccc(Br)cc12 | SW1573 | 12 µM |
| COC(=O)[C@@]1(C)CCC=C2[C@@H]1CC[C@@H](C)[C@]2(C)Cc1c[nH]c2ccc(C(F)(F)F)cc12 | SW1573 | 14 µM |
| COC(=O)[C@@]1(C)CCC=C2[C@@H]1CC[C@@H](C)[C@]2(C)Cc1c[nH]c2c(Cl)cccc12 | SW1573 | 14 µM |
| COC(=O)[C@@]1(C)CCC=C2[C@@H]1CC[C@@H](C)[C@]2(C)Cc1c[nH]c2ccccc12 | SW1573 | 7.3 µM |
